# viability per record follows
test system: primary FL patient cells (S022); experiment: viability relative to DMSO control (fraction); higher = less drug effect (more viable cells); conditions: 0.6 µM; 48 h
Answer with a number only.

Please review the entries below; each comes with its answer.
| molecule | measure-name | test-result |
| --- | --- | --- |
| CCN1CCN(Cc2ccc(Nc3ncc(F)c(-c4cc(F)c5nc(C)n(C(C)C)c5c4)n3)nc2)CC1 | viability | 1.06 |
| O=C(Nc1cccc(C(F)(F)F)c1)Nc1cc(S(=O)(=O)NC2CC2)ccc1-c1ccsc1 [AGI-6780] | viability | 0.821 |
| CCc1nc(C(N)=O)c(Nc2ccc(N3CCC(N4CCN(C)CC4)CC3)c(OC)c2)nc1NC1CCOCC1 [Gilteritinib] | viability | 0.907 |

q: Enter reported viability observed with primary FL patient cells (S022) for C[C@@H](Oc1cc(-c2cnn(C3CCNCC3)c2)cnc1N)c1c(Cl)ccc(F)c1Cl [Crizotinib]
a: 1.09

q: Give viability (primary FL patient cells (S022)) of the following molecule: Oc1ccc(/C=C/c2cc(O)cc(O)c2)cc1 [Resveratrol]
a: 0.784

###

// values below are reported viability
test system: primary B-PLL patient cells (S016); assay: viability relative to DMSO control (fraction); higher = less drug effect (more viable cells); settings: 0.024 µM; 48 h
Respond with the number and no other words.

| compound | test-result |
| --- | --- |
| CCN1CCN(Cc2ccc(Nc3ncc(F)c(-c4cc(F)c5nc(C)n(C(C)C)c5c4)n3)nc2)CC1 | 0.997 |
| Nc1nc(=S)c2[nH]cnc2[nH]1 [Thioguanin] | 0.919 |
| Oc1ccc(/C=C/c2cc(O)cc(O)c2)cc1 [Resveratrol] | 0.852 |

Lab note: next compound to report on.
q: What measured viability goes with O=C(c1cc(Cc2n[nH]c(=O)c3ccccc23)ccc1F)N1CCN(C(=O)C2CC2)CC1 [Olaparib] ?
a: 0.86

###

test system: primary AML patient cells (S079); experiment: viability relative to DMSO control (fraction); higher = less drug effect (more viable cells); conditions: 0.6 µM; 48 h
# maps each entry to its viability
Could you keep your reply to the number by itself?

| smiles-string | experimental-target | viability |
| --- | --- | --- |
| O=C(c1cc(Cc2n[nH]c(=O)c3ccccc23)ccc1F)N1CCN(C(=O)C2CC2)CC1 | primary AML patient cells (S079) | 0.898 |

q: Missing value: viability, primary AML patient cells (S079), entry Nc1nc(=S)c2[nH]cnc2[nH]1 . Fill in?
a: 0.575

q: Form field: viability recorded for CCc1nc(C(N)=O)c(Nc2ccc(N3CCC(N4CCN(C)CC4)CC3)c(OC)c2)nc1NC1CCOCC1 with primary AML patient cells (S079) (enter value)
a: 0.735

###

Measured viability of individual entries
test system: primary FL patient cells (S087); assay: viability relative to DMSO control (fraction); higher = less drug effect (more viable cells); conditions: 3 µM; 48 h
Reply with just the number.

| compound | measure-name | test-result |
| --- | --- | --- |
| O=C(Nc1cccc(C(F)(F)F)c1)Nc1cc(S(=O)(=O)NC2CC2)ccc1-c1ccsc1 [AGI-6780] | viability | 0.906 |
| CCN1CCN(Cc2ccc(Nc3ncc(F)c(-c4cc(F)c5nc(C)n(C(C)C)c5c4)n3)nc2)CC1 | viability | 0.763 |

# input for lookup
q: Consider the compound shown here: N#CC[C@H](C1CCCC1)n1cc(-c2ncnc3[nH]ccc23)cn1 [Ruxolitinib] What is its recorded viability?
a: 0.962
